Source of measurements: paper PMC6335420

SYSTEM NAME: T1, BsGpsB1-68 Glu17Ala (B. subtilis, UniProt P0CI74 1-68, Glu17Ala)
T1 construct: GpsB, Bacillus subtilis, residues 1-68 (N-terminal domain); also called BsGpsB1-68 E17A; source: E. coli BL21(DE3), purified (Ni-NTA, thrombin removal of the His6-tag, SEC); not shown: His6, N-terminal, cleaved
T1 sequence (looked up): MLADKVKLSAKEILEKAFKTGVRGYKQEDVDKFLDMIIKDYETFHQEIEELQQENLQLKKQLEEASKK
EXPERIMENT NOTES: fluorescence polarisation; GpsB protein titrated into TAMRA- or fluorescein-labelled peptide; 10 mM Tris.HCl pH 8.0, 250 mM NaCl, 0.1% reduced Triton X-100; all data fitted to a 1:1 interaction model, Kd ± standard error
CONDITION CONTEXT: both partners purified
No end group written: not given here.
QUANTITY: Kd

Return the recorded Kd value; entry: GSMADQFNSREARRKANC(TAMRA‑maleimide)KSSPSPKKGKKRKKGG (PBP1 (ponA), Bacillus subtilis, residues 1-32, cytoplasmic mini-domain; also called TAMRA-labelled BsPBP1 1-32 (Ser16Cys); 16-labelled peptide) [TAMRA-BsPBP11-32 wildtype]
> 1300 µM
